tested on: ICAM-1; experiment: ELISA screening for ICAM-1 expression in interleukin-1β-stimulated cells (HUVEC and A549); type: cell-based, human; conditions: interleukin-1β-stimulated cells, two cell lines (HUVEC, A549)
Strand notation (5' to 3'): a small letter for the sugar, then the base; units joined by * are phosphorothioate-linked, units joined directly phosphodiester-linked; [ ] holds rarer units or linkages, { } end groups; capitals alone tell only the bases. d = 2'-deoxy (DNA)
recorded.endpoint: inhibition of ICAM-1 expression, relative activity in words

[[record]]
substance = "ISIS 1938: P=S (printed P = 5), human ICAM-1 Termination Codon (1668-1687), SEQ ID NO 14, CCTGTCCCGGGATAGGTTCA (antisense dC*dC*dT*dG*dT*dC*dC*dC*dG*dG*dG*dA*dT*dA*dG*dG*dT*dT*dC*dA)"
assay_result = "moderate activity"

[[record]]
substance = "ISIS 1937: P=S, human ICAM-1 Termination Codon (1651-1687), SEQ ID NO 13, TCAGGGAGGCGTGGCTTGTG (antisense dT*dC*dA*dG*dG*dG*dA*dG*dG*dC*dG*dT*dG*dG*dC*dT*dT*dG*dT*dG)"
assay_result = "moderate activity"

